# System: NCI-H226 lung
# TEST_SUMMARY: NCI tumour cell line growth inhibition, 48 h

- COMPOUND: "COC(=O)C[C@H](CCSC)NC(=O)C[C@H](CCSC)NC(=O)C[C@H](CCSC)NC(=O)OC(C)(C)C"
  TGI: "> 100 µM"
- COMPOUND: "C=C1C(=O)O[C@H]2[C@H]1CC/C(COC(=O)/C=C/c1c[nH]c3ccccc13)=C\\CC[C@@]1(C)O[C@@H]21"
  TGI: "0.702 µM"
- COMPOUND: "CC1(C)CC(=O)C(=CN2C(=O)CNC2=S)C(=O)C1"
  TGI: "> 100 µM"
- COMPOUND: "O=C(Nc1cccc([N+](=O)[O-])c1)c1cc2ccccc2cc1O"
  TGI: "7.43 µM"
- COMPOUND: "CN(CCN(C)C(=O)CCn1ccc(=O)[nH]c1=O)C(=O)CCn1ccc(=O)[nH]c1=O"
  TGI: "> 100 µM"
- COMPOUND: "COc1ccc(/C=C/c2cnc3ccccc3n2)cc1OC"
  TGI: "> 100 µM"
- COMPOUND: "Cc1ccc(S(=O)(=O)c2ccsc2N)cc1"
  TGI: "> 100 µM"
- COMPOUND: "O=c1oc2ccccc2c(O)c1Cc1cccc(Cc2c(O)c3ccccc3oc2=O)c1"
  TGI: "> 100 µM"
- COMPOUND: "CC(C)c1nccn1Cc1ccc(Cl)cc1Cl"
  TGI: "93.5 µM"
- COMPOUND: "COc1cc2c(cc1O)CC[C@@H]1C2CC[C@@]2(C)C1CC[C@@H]2O (stereo not given in full)"
  TGI: "> 100 µM"
- COMPOUND: "CS(=O)(=O)Nc1cc(-c2ccc3ncnc(Nc4cccc(Cl)c4F)c3c2)cnc1Cl"
  TGI: "18.2 µM"
- COMPOUND: "O[C@H](CN1CC1)[C@@H](O)CN1CC1"
  TGI: "26 µM"
- COMPOUND: "Cc1ccc([N+](=O)[O-])cc1NC(=O)C(=O)C1CCC2=C(Sc3ccccc3N2)C1=O (stereo not given)"
  TGI: "> 100 µM"
- COMPOUND: "CC(C)N(Cc1ccccc1)S(=O)(=O)c1n[nH]c(C(C)(C)C)n1"
  TGI: "> 100 µM"
- COMPOUND: "COc1cc(C(=O)C/C(CCC(=O)Nc2ccc(Cl)cc2Cl)=N/Nc2nnc(C)n2N)ccc1O"
  TGI: "> 100 µM"
- COMPOUND: "O=C1C(=Cc2ccccc2[N+](=O)[O-])N=C(c2ccccc2)N1n1c(-c2ccccc2)nc2ccccc2c1=O"
  TGI: "85.3 µM"
- COMPOUND: "NC1CCCCC1N.O=S(=O)([O-])CCCN1CCN(CCO)CC1.O=S(=O)([O-])CCCN1CCN(CCO)CC1.[Pt+4]"
  TGI: "> 100 µM"
- COMPOUND: "CC1=NN(C(=O)c2cc(Cl)cc([N+](=O)[O-])c2)C(=O)C1N=Nc1ccccc1C(=O)O (stereo not given)"
  TGI: "> 100 µM"
- COMPOUND: "C/C(=C\\c1ccccc1)C(=O)NCc1ccc(C(=O)NCCc2c[nH]c3ccccc23)cc1"
  TGI: "> 100 µM"
- COMPOUND: "CC1(C)Oc2ccc3c(=O)c4ccccc4oc3c2C1C(=O)O (stereo not given)"
  TGI: "> 100 µM"

---

# Test system: SF-295 CNS
# TEST_SUMMARY: NCI tumour cell line growth inhibition, 48 h; in the data active = GI50 below about 0.43 µM; inactive = the rest
Outcome codes: active, inactive

- COMPOUND: "C[C@H]1CC2=CC(=O)CC[C@]2(C)[C@H]2CC[C@@]3(C)[C@@H](CC[C@]3(C)O)[C@H]12"
  GROUP_LABEL: "inactive"
- COMPOUND: "CN1N=Nc2c(C(F)(F)F)nn(-c3ccccc3)c2N(C)C1=O"
  GROUP_LABEL: "inactive"
- COMPOUND: "CC(=O)O[C@H](C[C@H](C(C)C)N(C)C(=O)[C@@H](NC(=O)[C@H]1CCCCN1C)C(C)(C)C)c1nc(C(=O)N[C@@H](Cc2ccccc2)C[C@H](C)C(=O)O)cs1"
  GROUP_LABEL: "active"
- COMPOUND: "Cc1[nH]n(-c2ccccc2)c(=O)c1C(=O)c1ccccc1"
  GROUP_LABEL: "inactive"
- COMPOUND: "N#Cc1ccc2c(c1)C(=O)c1c-2n(CCCN=[N+]=[N-])c(=O)c2cc([N+](=O)[O-])ccc12"
  GROUP_LABEL: "inactive"
- COMPOUND: "COc1cc(/C=C/c2cc(/C=C/c3ccc(O)c(OC)c3)[nH]c(=O)n2)ccc1O"
  GROUP_LABEL: "inactive"
- COMPOUND: "O=C(O)c1cc2c(c3ccsc13)-c1ccccc1CC2"
  GROUP_LABEL: "inactive"
- COMPOUND: "C/C=C/C(=O)[O-].N.N.N.N.N.[Co+3].[O-][Cl+3]([O-])([O-])[O-]"
  GROUP_LABEL: "inactive"
- COMPOUND: "C=C(C)[C@@H]1CC[C@]2(C)[C@H](CC=C3[C@@H]4[C@H](C)[C@@H](C)CC[C@]4(CO)CC[C@]32C)[C@@]1(C)CCCN"
  GROUP_LABEL: "inactive"
- COMPOUND: "O=C(Nc1cccc([N+](=O)[O-])c1)c1cc2ccccc2cc1O"
  GROUP_LABEL: "inactive"
- COMPOUND: "Cn1c(O)c(N=NC(N)=S)c2ccccc21"
  GROUP_LABEL: "inactive"
- COMPOUND: "CCC1OC(/C(C)=C/C(C)/C=C/C2C(C)C2/C=C/C2OC(CC(=O)O)CC(O)C2O)CC=C1C (stereo not drawn)"
  GROUP_LABEL: "inactive"
- COMPOUND: "CCN(CC)CCOc1nc2cc(OC)c(OC)cc2c2c1-c1ccc(OC)cc1C2=O"
  GROUP_LABEL: "active"
- COMPOUND: "Cc1ccc(/C=C2\\CN(Cc3cn(CCNc4ccnc5cc(Cl)ccc45)nn3)C/C(=C\\c3ccc(C)cc3)C2=O)cc1"
  GROUP_LABEL: "inactive"
- COMPOUND: "CCC1(CC)C(=O)[N-]C(=O)[N-]C1=O.[Au+].[Au+].c1ccc([PH+](c2ccccc2)c2ccccc2)cc1.c1ccc([PH+](c2ccccc2)c2ccccc2)cc1"
  GROUP_LABEL: "inactive"
- COMPOUND: "Cc1ccc(S(=O)(=O)c2ccsc2N)cc1"
  GROUP_LABEL: "inactive"
- COMPOUND: "N#Cc1ncc(N2C(=O)C3(CCC3)N(c3ccc(OC4CCNCC4)nc3)C2=S)cc1C(F)(F)F"
  GROUP_LABEL: "inactive"
- COMPOUND: "S=C(Nc1ccccc1)N1CCn2c1nsc2=Nc1ccccc1"
  GROUP_LABEL: "inactive"

---

Below, each of the compounds is paired with its reported log10(TGI) value.
# Tested on: HCC-2998 colon
# TEST_SUMMARY: NCI tumour cell line growth inhibition, 48 h
RECORDED_ENDPOINT: log10(TGI) (log10 of the value in µM)

- COMPOUND: "O=C(O)c1cc2c(c3ccsc13)-c1ccccc1CC2"
  RECORDED_RESULT: 1.84
- COMPOUND: "NC(=S)N/N=C\\c1nccc2c(C(F)(F)C(F)(F)C(F)(F)F)cccc12"
  RECORDED_RESULT: 0.65
- COMPOUND: "CCC(=O)OC1=CN2C(=NC(c3ccc(N)cc3)=CC2c2cc(OC)c(OC)c(OC)c2)S1 (centres undefined)"
  RECORDED_RESULT: 1.20
- COMPOUND: "N#Cc1c(-c2ccc(Cl)cc2)cc(-c2nc3ccccc3[nH]2)nc1N"
  RECORDED_RESULT: 1.16
- COMPOUND: "N#CC1CCc2c(c(-c3cn[nH]c3C(F)(F)F)nc3c(F)cc4[nH]ncc4c23)C1 (centres undefined)"
  RECORDED_RESULT: 1.45
- COMPOUND: "N#Cc1ncc(N2C(=O)C3(CCC3)N(c3ccc(OC4CCNCC4)nc3)C2=S)cc1C(F)(F)F"
  RECORDED_RESULT: 1.49
- COMPOUND: "C=C1C[C@@H]2[C@H](CC[C@]3(C)C(=O)CC[C@@H]23)[C@@]2(C)C=CC(=O)C=C12"
  RECORDED_RESULT: 1.53
- COMPOUND: "Cc1cc(O)c2c(c1)C(=O)C(c1c(C)cc3c(c1O)C(=O)C1OC1C3=O)=CC2=O (centres undefined)"
  RECORDED_RESULT: 1.24
- COMPOUND: "COc1cc(/C=C/c2cc(/C=C/c3ccc(O)c(OC)c3)[nH]c(=O)n2)ccc1O"
  RECORDED_RESULT: 1.16
- COMPOUND: "O=C(Nc1ccccc1C(=O)O)C(=O)C(C(=O)c1ccccc1-c1ccccc1)C1OC(=O)c2ccccc21 (centres undefined)"
  RECORDED_RESULT: 1.49

Values were extracted from PubChem BioAssay (NCI).
